Recorded inhibition at 24 h, 10 µM values for a group of compounds are listed next.
Assay overview: Growth inhibition of human HEK293 cells at 10 uM after 24 hrs by MTT assay
Assay type: cell-based
Run parameters: read-out: GI
Field format: number, assumed %, no unit text.

{"Compound": "O=c1oc(-c2ccccc2)c(-c2ccccc2)c2sc3c(c12)CCC3", "inhibition at 24 h, 10 µM [%]": 4}
{"Compound": "CC(C)(O)C#Cc1c(-c2ccccc2)oc(=O)c2c3c(sc12)CCCCC3", "inhibition at 24 h, 10 µM [%]": 4.2}
{"Compound": "O=c1oc(-c2ccccc2)c(C#Cc2ccccc2)c2sc3c(c12)CCCCC3", "inhibition at 24 h, 10 µM [%]": 1.7}
{"Compound": "CC(C)(C)OC(=O)N1CCc2c(sc3c(I)c(-c4ccccc4)oc(=O)c23)C1", "inhibition at 24 h, 10 µM [%]": 9.03}
{"Compound": "O=c1oc(-c2ccccc2)c(I)c2sc3c(c12)CCCC3", "inhibition at 24 h, 10 µM [%]": 0.6}

Would you kindly share the measured inhibition at 24 h, 10 µM for CCOC(=O)/C=C/c1c(-c2ccccc2)oc(=O)c2c3c(sc12)CCCCC3 ?
1.11

I have this compound here, Cc1ccc(-c2oc(=O)c3c4c(sc3c2I)CCCC4)cc1 , and I need its recorded inhibition at 24 h, 10 µM.
0

Any idea what its inhibition at 24 h, 10 µM is? The compound is O=c1oc(-c2ccccc2)c(I)c2sc3c(c12)CCCCC3
0.23

Returns the measured inhibition at 24 h, 10 µM for the input compound. Input: CCCCC#Cc1c(-c2ccccc2)oc(=O)c2c3c(sc12)CCCCC3
3.2

// query inhibition at 24 h, 10 µM value for entry CCCCCC#Cc1c(-c2ccccc2)oc(=O)c2c3c(sc12)CCCCC3
0.44

Form field: reported inhibition at 24 h, 10 µM of O=c1oc(-c2ccccc2)c(-c2ccc(O)cc2)c2sc3c(c12)CCCC3
0.5

Look up inhibition at 24 h, 10 µM: O=c1oc(-c2ccccc2)c(-c2ccccc2)c2sc3c(c12)CCCCC3
0.01

These data points were gathered from ChEMBL document CHEMBL2040793.
